Source of measurements: patent US20260028365A1

assayed-system: UniProt P29597
method: pSTAT4 Cell Assay (MSD, NK92 cells)
Type: cell-based
pIC50: −log10 of the molar value.
parameter: pIC50

>>> print(df.to_string())
                                    molecule  parameter        result
 0  COc1cnnc(-c2cnc(NC(C)=O)cc2Nc2cc(C)nc(C(C)(F)F)n2)c1      pIC50        ≤ 6.00
 1  COc1cnc(-c2cnc(NC(C)=O)cc2Nc2cc(C)nc(C(C)(F)F)n2)cn1      pIC50        ≤ 6.00
 2  CC(=O)Nc1cc(Nc2ccnc(C(C)(F)F)n2)c(-c2cn3c(n2)CCCC3)cn1      pIC50        ≥ 8.00
 3  CC(=O)Nc1cc(Nc2cc(C)nc(C(C)(F)F)n2)c(-c2cnc(CN3CCOCC3)cn2)cn1      pIC50        ≥ 8.00
 4  CC(=O)Nc1cc(Nc2ccnc(C(C)(F)F)n2)c(-c2ccc(CN3CC4(CCOC4)C3)cn2)cn1      pIC50        ≥ 8.00
 5  CC(=O)Nc1cc(Nc2cc(C)nc(C(C)(F)F)n2)c(-c2nc(CN(C)C)cs2)cn1      pIC50        ≥ 8.00
 6  CC(=O)Nc1cc(Nc2ccnc(C(C)(F)F)n2)c(-c2ccc(N(C)C)nn2)cn1      pIC50        ≥ 8.00
 7  COc1ccc(-c2cnc(NC(C)=O)cc2Nc2ccnc(C(C)(C)F)n2)nn1      pIC50        ≥ 8.00
 8  COC1CCN(Cc2ccc(-c3cnc(NC(C)=O)cc3Nc3ccnc(C(C)(F)F)n3)nc2)C1 (stereo not shown)      pIC50        ≥ 8.00
 9  CC(=O)Nc1cc(Nc2ccnc(C(C)(F)F)n2)c(-c2ccc(CN3C[C@H]4C[C@@H]3CO4)cn2)cn1 (racemic)      pIC50        ≥ 8.00
10  CCc1cc(Nc2cc(NC(C)=O)ncc2-c2ccc(OC(F)F)cn2)nc(C(C)(F)F)n1      pIC50        ≥ 8.00
11  CCc1cc(Nc2cc(NC(C)=O)ncc2-c2ccnc(CN3CCOCC3)n2)nc(C(C)(F)F)n1      pIC50  6.00 to 7.00
12  CN1CCc2sc(-c3cnc(NC=O)cc3Nc3ccnc(C(C)(F)F)n3)nc2C1      pIC50  7.00 to 8.00
13  CC(=O)Nc1cc(Nc2cc(OC3CC3)nc(C(C)(F)F)n2)c(-c2cnccn2)cn1      pIC50  7.00 to 8.00
14  CCc1cc(Nc2cc(NC(C)=O)ncc2-c2ccc3c(n2)OCC(C)(C)O3)nc(C(C)(F)F)n1      pIC50        ≥ 8.00
15  CCc1cc(Nc2cc(NC(N)=O)ncc2-c2cnccn2)nc(C(C)(F)F)n1      pIC50        ≥ 8.00

---

assayed-system: JH2 domain of human Tyk2 (Homo sapiens (Human), UniProt P29597)
method: JH2 Biochemical Assay (TR-FRET probe displacement)
Assay type: binding
test-conditions: TR-FRET probe displacement, JH2 domain of human Tyk2
pIC50: −log10 of the molar value.
Quick reference for pIC50 among some molecules
parameter: pIC50

>>> print(df.to_string())
                                smiles_text                            assayed_system        result
0  CC(=O)Nc1cc(Nc2cc(C)nc(C(C)(F)F)n2)c(-c2cc(C#N)cnn2)cn1  JH2 domain of human Tyk2 (Homo sapiens (Human), UniProt P29597)        ≥ 8.00
1  CC(=O)Nc1cc(Nc2cc(C)nc(C(C)(F)F)n2)c(OCc2cnc(C3CC3)o2)cn1  JH2 domain of human Tyk2 (Homo sapiens (Human), UniProt P29597)        ≥ 8.00
2  CC(=O)Nc1cc(Nc2ccnc(C(C)(F)F)n2)c(OC(C)C)cn1  JH2 domain of human Tyk2 (Homo sapiens (Human), UniProt P29597)        ≥ 8.00
3  CC(=O)Nc1cc(Nc2cncc(C(C)(C)F)n2)c(-c2ncc(F)cn2)cn1  JH2 domain of human Tyk2 (Homo sapiens (Human), UniProt P29597)  7.00 to 8.00

---

assayed-system: JH2 domain of human Tyk2 (Homo sapiens (Human))
method: JH2 Biochemical Assay (TR-FRET probe displacement)
Type: binding
test-conditions: JH2 domain of human Tyk2, TR-FRET probe displacement
parameter: IC50

>>> df
                                   compound   result
0  CC(=O)Nc1cc(Nc2cc(C)nc(C(C)(F)F)n2)c(OCCCC2CCCO2)cn1 (centres unmarked) [Example 434]  ≤ 10 nM
1  COCc1ccc(-c2cnc(NC(C)=O)cc2Nc2cc(C)nc(C3CCOC3)n2)nc1 (centres unmarked) [Example 568]  ≤ 10 nM
2  CC(=O)Nc1cc(Nc2cc(C)nc(C(C)(F)F)n2)c(-c2cnccn2)cn1 [Example 620]  ≤ 10 nM
3  CC(=O)Nc1cc(Nc2cc(C)nc(C(C)(F)F)n2)c(-c2ncc(CN(C)C)s2)cn1 [Example 737]  ≤ 10 nM
4  CC(=O)Nc1cc(Nc2cc(C)nc(C(C)(F)F)n2)c(OCC2CC(F)(F)C2)cn1 [Example 465]  ≤ 10 nM
5  CC(=O)Nc1cc(Nc2cc(C)nc(C(C)(F)F)n2)c(OCC2CN(C(C)C)CCO2)cn1 (centres unmarked) [Example 503]  ≤ 10 nM
6  COCCOc1cc(Nc2cc(NC(C)=O)ncc2-c2ccncn2)nc(C(C)(F)F)n1 [Example 585]  ≤ 10 nM
7  CC(=O)Nc1cc(Nc2cc(OC3CC3)nc(C(C)(F)F)n2)c(OCC2COCCO2)cn1 (centres unmarked) [Example 445]  ≤ 10 nM

---

assayed-system: UniProt:P29597
method: pSTAT4 Cell Assay (MSD, NK92 cells)
Format: cell-based
test-conditions: MSD
parameter: IC50

>>> print(df.to_string())
                                    compound          result
 0  COc1cnc(NC(C)=O)cc1Nc1ccnc(C2CCOC2)n1 (stereo not shown)          ≥ 1 µM
 1  COc1cnc(-c2cnc(NC(C)=O)cc2Nc2cc(C)nc(C(C)(F)F)n2)nc1       ≤ 0.01 µM
 2  COc1ccc(-c2cc(Nc3cc(NC(C)=O)ncc3OC)nc(C(C)(F)F)n2)cn1 [Example 392]       ≤ 0.01 µM
 3  CC(=O)Nc1cc(Nc2cc(C)nc(C(C)(F)F)n2)c(-c2cc3n(n2)C(O)CN(C)C3)cn1 (stereo not shown)       ≤ 0.01 µM
 4  CC(=O)Nc1cc(Nc2cccc(C(C)(F)F)n2)c(OCCO)cn1       ≤ 0.01 µM
 5  CCc1cc(Nc2cc(NC(C)=O)ncc2-c2ccc(F)cn2)nc(C(C)(F)F)n1       ≤ 0.01 µM
 6  CC(=O)Nc1cc(Nc2cc(C)nc(C(C)(F)F)n2)c(OCC(F)C2CCC2)cn1 (stereo not shown)  0.01 to 0.1 µM
 7  CC(=O)Nc1cc(Nc2cc(C)nc(C(C)(F)F)n2)c(-c2ccc([C@H]3CN(C)CCO3)cn2)cn1 (single isomer, unassigned)       ≤ 0.01 µM
 8  CC(=O)Nc1cc(Nc2cc(C)nc(C(C)(F)F)n2)c(OCc2c(C)ncnc2C)cn1          ≥ 1 µM
 9  COCCn1nccc1-c1cnc(NC(C)=O)cc1Nc1cc(C)nc(C(C)(F)F)n1     0.1 to 1 µM
10  COCCN(C)c1cncc(-c2cnc(NC(C)=O)cc2Nc2ccnc(C(C)(F)F)n2)n1     0.1 to 1 µM
11  CCOc1cnc(NC(C)=O)cc1Nc1cc(-c2cnn(CCOC)c2)nc(C(C)(F)F)n1  0.01 to 0.1 µM
12  CC(=O)Nc1cc(Nc2ccnc(C(C)(F)F)n2)c(-c2cc3n(n2)CCN(CC#N)C3)cn1       ≤ 0.01 µM
13  CC(=O)Nc1cc(Nc2cc(C)nc(C34COC(C3)C4)n2)c(-c2cc(C(F)F)ccn2)cn1     0.1 to 1 µM
14  COC1(COc2cnc(NC(C)=O)cc2Nc2cc(C)nc(C(C)(F)F)n2)CCC1  0.01 to 0.1 µM
15  CCn1ccc(-c2cnc(NC(C)=O)cc2Nc2cc(C)nc(C(C)(F)F)n2)n1       ≤ 0.01 µM

---

assayed-system: Tyk2 (Homo sapiens (Human))
Sequence (P29597 whole entry): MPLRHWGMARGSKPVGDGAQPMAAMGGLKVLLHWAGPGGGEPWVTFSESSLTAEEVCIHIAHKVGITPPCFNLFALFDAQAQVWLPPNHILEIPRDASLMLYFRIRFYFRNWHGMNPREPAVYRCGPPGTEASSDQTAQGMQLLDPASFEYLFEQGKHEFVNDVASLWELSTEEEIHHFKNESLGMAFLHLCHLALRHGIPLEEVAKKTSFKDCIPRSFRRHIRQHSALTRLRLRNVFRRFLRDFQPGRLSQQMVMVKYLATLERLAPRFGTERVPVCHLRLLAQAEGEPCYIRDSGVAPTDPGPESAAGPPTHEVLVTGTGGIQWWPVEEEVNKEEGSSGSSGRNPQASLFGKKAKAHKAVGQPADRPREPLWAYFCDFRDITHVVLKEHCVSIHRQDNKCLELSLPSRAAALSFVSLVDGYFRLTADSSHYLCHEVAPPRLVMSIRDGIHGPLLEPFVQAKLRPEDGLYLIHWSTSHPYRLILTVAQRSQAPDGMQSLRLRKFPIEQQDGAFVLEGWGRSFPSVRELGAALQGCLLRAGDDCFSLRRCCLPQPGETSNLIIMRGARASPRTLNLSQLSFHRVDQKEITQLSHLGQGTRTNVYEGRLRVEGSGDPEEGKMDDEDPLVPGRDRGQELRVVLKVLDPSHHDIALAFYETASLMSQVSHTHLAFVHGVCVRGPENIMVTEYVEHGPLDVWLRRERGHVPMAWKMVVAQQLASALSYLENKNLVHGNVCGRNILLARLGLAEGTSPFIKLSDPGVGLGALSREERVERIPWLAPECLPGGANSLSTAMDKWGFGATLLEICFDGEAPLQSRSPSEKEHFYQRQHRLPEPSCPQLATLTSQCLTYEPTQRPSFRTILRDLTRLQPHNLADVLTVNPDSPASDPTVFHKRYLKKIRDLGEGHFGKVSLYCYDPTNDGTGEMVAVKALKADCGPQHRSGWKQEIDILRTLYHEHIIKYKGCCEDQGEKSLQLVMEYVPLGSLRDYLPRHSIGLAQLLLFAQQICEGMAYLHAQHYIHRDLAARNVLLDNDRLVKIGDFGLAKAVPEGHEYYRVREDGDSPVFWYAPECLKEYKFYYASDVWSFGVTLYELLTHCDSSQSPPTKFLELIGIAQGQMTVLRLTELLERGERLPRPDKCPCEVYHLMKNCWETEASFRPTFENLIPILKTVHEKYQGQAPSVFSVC
method: pSTAT4 Cell Assay (MSD, NK92 cells)
Assay type: cell-based
test-conditions: MSD
pIC50: −log10 of the molar value.
In this section we review reported pIC50 values for a set of compounds.
parameter: pIC50

>>> df
                                smiles_text        result
0  COc1ncc(-c2cnc(NC(C)=O)cc2Nc2ccnc(C(C)(F)F)n2)nc1OC        ≤ 6.00
1  CCOc1cnc(NC(C)=O)cc1Nc1cc(OC)nc(C(C)(F)F)n1  7.00 to 8.00
2  CO[C@H]1C[C@H](Oc2cnc(NC(C)=O)cc2Nc2cc(C(C)C)nc(C(C)(F)F)n2)C1        ≥ 8.00
3  CC(=O)Nc1cc(Nc2ccnc(C(C)(F)F)n2)c(OC2CCC2)cn1  6.00 to 7.00
4  CO[C@H]1C[C@@H](Oc2cc(Nc3cc(NC(C)=O)ncc3-c3ccn(C)n3)nc(C(C)(F)F)c2)C1        ≥ 8.00
5  CC(=O)Nc1cc(Nc2cccc(C(C)(F)F)n2)c(-c2ccc(C#N)cn2)cn1  7.00 to 8.00
6  CC(=O)Nc1cc(Nc2cc(C)nc(C(C)(F)F)n2)c(-c2cnn3c2OCCC3)cn1        ≤ 6.00
7  CCOc1cnc(NC(C)=O)cc1Nc1cc(-c2cnn(CC(=O)O)c2)nc(C(C)(F)F)n1        ≤ 6.00
